assay: qHTS for differential inhibitors of proliferation of Plasmodium falciparum line 3D7 (AID 1876); conditions: P. falciparum 3D7 proliferation inhibition; series mostly up to 28.7 µM
Inconclusive results are not listed. The source made the active and inactive calls. Calls come from the whole dose curve; as a rule, active = well fitted curve in the direction sought with a large enough effect; inconclusive = small, poorly fitted or top-dose-only effect, or another doubt; inactive = no such curve, though single readings can be large or run the other way.
Possible outcomes: Y for active, N for inactive

{"molecule": "OCC1O[C@H](O)C(Cl)C(O)C1O (stereo not given in full)", "assigned-class": "N"}
{"molecule": "O=c1[nH]c2cc([N+](=O)[O-])c([N+](=O)[O-])cc2[nH]c1=O", "assigned-class": "N"}
{"molecule": "NC(N)=NC(=O)c1nc(Cl)c(N2CCCCCC2)nc1N", "assigned-class": "Y"}
{"molecule": "CC12C(=O)OC(=O)C1(C)C1CCC2O1 (stereo not given)", "assigned-class": "Y"}
{"molecule": "O=C(O)CNC(=O)C(CS)Cc1ccccc1 (stereo not given)", "assigned-class": "N"}
{"molecule": "Fc1ccc(C(OCCCc2cnc[nH]2)c2ccc(F)cc2)cc1", "assigned-class": "Y"}
{"molecule": "O=C(/C=C/c1ccc(O)c(O)c1)OCCc1ccccc1", "assigned-class": "Y"}
{"molecule": "N#C/C(=C\\c1ccc(O)c(O)c1)C(=O)c1ccc(O)c(O)c1", "assigned-class": "Y"}
{"molecule": "O=Nc1ccc2oc(=O)ccc2c1", "assigned-class": "Y"}
{"molecule": "CN1CCc2cc(NC(=O)Nc3cccnc3)ccc21", "assigned-class": "N"}
{"molecule": "N#C/C(=C\\c1ccc(O)c(O)c1)C(=O)NCc1ccccc1", "assigned-class": "Y"}
{"molecule": "CC(COc1ccc(/C=C/c2ccccc2)cc1)[N+](C)(C)C (stereo not given)", "assigned-class": "Y"}
{"molecule": "CO/N=C(\\C(=O)N[C@@H]1C(=O)N2C(C(=O)O)=C(COC(C)=O)CS[C@H]12)c1csc(N)n1 (stereo in doubt)", "assigned-class": "N"}
{"molecule": "Brc1c(Br)c(Br)c2n[nH]nc2c1Br", "assigned-class": "N"}
{"molecule": "Cc1ccc(C(=O)O[C@H](C(=O)O)[C@@H](OC(=O)c2ccc(C)cc2)C(=O)O)cc1 (tested in a mixture with another compound)", "assigned-class": "N"}
